Data provenance: PubChem BioAssay (NCATS)

tested on: CP305; assay: qHTS profiling for inhibitors of Plasmodium falciparum proliferation (AID 504749); also: nearly all actives have a fitted effect of over 60% in size; also: potency is read from the fitted curve at half-maximal effect; settings: P. falciparum in erythrocytes, SYBR Green DNA, 72 h; series mostly up to 28.7 µM
Records with an inconclusive call do not appear. Active and inactive are the calls of the source. Calls follow the shape of the dose curve; as a rule, active = well fitted inhibition curve with a large enough effect; inconclusive = small, poorly fitted or top-dose-only effect; inactive = flat fitted curve, though single readings scatter.
REPORTED PROPERTY: Potency

Give recorded Potency. COC(=O)C1=C(C)NC(C)=C(C(=O)OCCCN2CCC(c3ccccc3)(c3ccccc3)CC2)C1c1cccc([N+](=O)[O-])c1 (stereo not drawn) 7.57 µM (active)

Give recorded Potency. `CCCCc1ccc2nc(NC(=O)OC)[nH]c2c1` inactive

Give recorded Potency. `CNC[C@H](O)c1ccc(O)c(O)c1` inactive

Give recorded Potency. COCCCOc1ccnc(CS(=O)c2nc3ccccc3[nH]2)c1C (stereo not drawn) inactive

Give recorded Potency. CCN(CCO)CCCC(C)Nc1ccnc2cc(Cl)ccc12 (stereo not drawn) inactive

More entries:
Give recorded Potency. `Cc1cccc(C)c1OCC(=O)N[C@@H](Cc1ccccc1)[C@@H](O)C[C@H](Cc1ccccc1)NC(=O)[C@H](C(C)C)N1CCCNC1=O` 13.5 µM (active)

Give recorded Potency. O=C(CS(=O)Cc1ccco1)NCC=CCOc1cc(CN2CCCCC2)ccn1 (stereo not drawn) inactive

Give recorded Potency. `Nc1cc(C(Cl)=C(Cl)Cl)c(S(N)(=O)=O)cc1S(N)(=O)=O` inactive

Give recorded Potency. `CNC[C@@H](O)[C@@H](O)[C@H](O)[C@H](O)CO` inactive

Give recorded Potency. `CCc1nc(N)nc(N)c1-c1ccc(Cl)cc1` inactive

---

biological target: Voltage-gated inwardly rectifying potassium channel KCNH2 (Homo sapiens); experiment: qHTS Assay for Small Molecule Inhibitors of the Human hERG Channel Activity (AID 588834); conditions: U2OS BacMam hERG, FluxOR thallium flux fluorescence; series mostly up to 46.1 µM;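 also: lower thallium flux fluorescence means stronger hERG block; nearly all actives have a fitted effect of over 50% in size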; also: potency is read from the fitted curve at half-maximal effect
Results filed as inconclusive are left out. Activity calls are given as the source filed them. Calls come from the whole dose curve; as a rule, active = well fitted inhibition curve with a large enough effect; inconclusive = small, poorly fitted or top-dose-only effect; inactive = flat fitted curve, though single readings scatter.
REPORTED PROPERTY: Potency

Look over these answered cases.
Provide Potency, tested on Voltage-gated inwardly rectifying potassium channel KCNH2 (Homo sapiens), for `COc1cc(OC)c(C(=O)CCCN2CCCC2)c(OC)c1` . inactive

Provide Potency, tested on Voltage-gated inwardly rectifying potassium channel KCNH2 (Homo sapiens), for Cc1ncc([N+](=O)[O-])n1CC(C)O (configuration not stated) . inactive

Provide Potency, tested on Voltage-gated inwardly rectifying potassium channel KCNH2 (Homo sapiens), for `O=c1oc2cc(O)ccc2s1` . inactive

Provide Potency, tested on Voltage-gated inwardly rectifying potassium channel KCNH2 (Homo sapiens), for `CC(C)c1ccc2c(c1)c(SC(C)(C)C)c(CC(C)(C)C(=O)O)n2Cc1ccc(Cl)cc1` . inactive

More entries:
Provide Potency, tested on Voltage-gated inwardly rectifying potassium channel KCNH2 (Homo sapiens), for `Cc1cc2cc3c(C)cc(=O)oc3c(C)c2o1` . inactive

Provide Potency, tested on Voltage-gated inwardly rectifying potassium channel KCNH2 (Homo sapiens), for CCN(CCO)CCCC(C)Nc1ccnc2cc(Cl)ccc12 (configuration not stated) . inactive

Provide Potency, tested on Voltage-gated inwardly rectifying potassium channel KCNH2 (Homo sapiens), for Nc1ccn([C@@H]2O[C@H](CO)[C@@H](O)C2O)c(=O)n1 (some centres not stated) . inactive

Provide Potency, tested on Voltage-gated inwardly rectifying potassium channel KCNH2 (Homo sapiens), for `Nc1cc(C(Cl)=C(Cl)Cl)c(S(N)(=O)=O)cc1S(N)(=O)=O` . inactive

Provide Potency, tested on Voltage-gated inwardly rectifying potassium channel KCNH2 (Homo sapiens), for `Cc1cc(C2CCCCC2)n(O)c(=O)c1` . inactive

Provide Potency, tested on Voltage-gated inwardly rectifying potassium channel KCNH2 (Homo sapiens), for `O=c1c(O)c(-c2ccc(O)cc2O)oc2cc(O)cc(O)c12` . 3.16 µM (active)

Provide Potency, tested on Voltage-gated inwardly rectifying potassium channel KCNH2 (Homo sapiens), for `CN1C(C(=O)Nc2ccccn2)=C(O)c2sccc2S1(=O)=O` . inactive

Provide Potency, tested on Voltage-gated inwardly rectifying potassium channel KCNH2 (Homo sapiens), for Clc1ccc(C(Cn2ccnc2)OCc2ccsc2Cl)c(Cl)c1 (configuration not stated) . 10 µM (active)

---

assay: P-glycoprotein substrates identified in KB-8-5-11 adenocarcinoma cell line, qHTS therapeutic library screen (AID 1346987); details: KB-8-5-11 (P-gp overexpressing) viability, CellTiter-Glo, 72 h; series mostly up to 44.5 µM; also: nearly all actives have a fitted effect of over 65% in size
Results filed as inconclusive are left out. Active and inactive are the calls of the source. Calls come from the whole dose curve; as a rule, active = well fitted inhibition curve with a large enough effect; inconclusive = small, poorly fitted or top-dose-only effect; inactive = flat fitted curve, though single readings scatter.
Pick one and only one: true (1) (active), false (0) (inactive)

Each compound tested received a call. Report the one for `O=C(CCc1ccc(O)cc1)c1c(O)cc(O)cc1O` . false (0)

Each compound tested received a call. Report the one for `O=C1CCc2ccc(OCCCCN3CCN(c4cccc(Cl)c4Cl)CC3)cc2N1` . false (0)

Each compound tested received a call. Report the one for `CCN(CC)CCOc1ccc(Nc2ncc3cc(-c4c(Cl)cccc4Cl)c(=O)n(C)c3n2)cc1` . true (1)

Each compound tested received a call. Report the one for `CCOC(=O)C1=C[C@@H](OC(CC)CC)[C@H](NC(C)=O)[C@@H](N)C1` . false (0)

Each compound tested received a call. Report the one for `CS(=O)(=O)OCCCCOS(C)(=O)=O` . false (0)

More entries:
Each compound tested received a call. Report the one for `CN(C)C(=O)COC(=O)Cc1ccc(OC(=O)c2ccc(N=C(N)N)cc2)cc1` . false (0)

Each compound tested received a call. Report the one for `COc1cc(Nc2c(C#N)cnc3cc(OCCCN4CCN(C)CC4)c(OC)cc23)c(Cl)cc1Cl` . false (0)

Each compound tested received a call. Report the one for `Cc1cc2c(s1)Nc1ccccc1N=C2N1CCN(C)CC1` . false (0)

Each compound tested received a call. Report the one for `Nc1nc(Cl)nc2c1ncn2[C@H]1C[C@H](O)[C@@H](CO)O1` . false (0)

Each compound tested received a call. Report the one for `CN(C)CCc1c[nH]c2ccc(Cn3cncn3)cc12` . false (0)

Each compound tested received a call. Report the one for `CC(C)[C@H](N)C(=O)OCCOCn1cnc2c(=O)[nH]c(N)nc21` . false (0)

---

experiment: qHTS of pediatric cancer cell lines to identify multiple opportunities for drug repurposing: Primary screen for A673 cells (AID 1347092); settings: A673 Ewing sarcoma viability, CellTiter-Glo ATP luminescence, 48 h; series mostly up to 46 µM; also: nearly all actives have a fitted effect of over 45% in size
Records with an inconclusive call do not appear. The source made the active and inactive calls. Calls follow the shape of the dose curve; as a rule, active = well fitted cell-killing curve with a large enough effect; inconclusive = small, poorly fitted or top-dose-only effect; inactive = no such curve, though single readings can be large or run the other way.
Pick one and only one: active, inactive

Each molecule tested received a call. Report the one for `COCCCN1CCC(NC(=O)c2cc(Cl)c(N)c3c2OCC3)CC1` . inactive

Each molecule tested received a call. Report the one for `O=P(O)(O)C(O)(Cn1ccnc1)P(=O)(O)O` . inactive

Each molecule tested received a call. Report the one for `CC(C)c1ccc2oc3nc(N)c(C(=O)O)cc3c(=O)c2c1` . inactive

Each molecule tested received a call. Report the one for `c1ccc2[nH]c(-c3cscn3)nc2c1` . inactive

Each molecule tested received a call. Report the one for OC(CN1CCN(c2cccc(Cl)c2)CC1)C(c1ccccc1)c1ccccc1 (centres undefined) . active

Switching to the query record.
Each molecule tested received a call. Report the one for `COc1cc(OC)c(C(=O)CCCN2CCCC2)c(OC)c1` . inactive

---

tested on: CP325; experiment: qHTS profiling for inhibitors of Plasmodium falciparum proliferation (AID 504749); also: nearly all actives have a fitted effect of over 60% in size; settings: P. falciparum in erythrocytes, SYBR Green DNA, 72 h; series mostly up to 28.7 µM
Results filed as inconclusive are left out. Active and inactive are the calls of the source. Calls follow the shape of the dose curve; as a rule, active = well fitted inhibition curve with a large enough effect; inconclusive = small, poorly fitted or top-dose-only effect; inactive = flat fitted curve, though single readings scatter.
Pick one and only one: 1 (yes) (active), 0 (no) (inactive)

Each molecule tested received a call. Report the one for `CC(C)(S)[C@@H](N)C(=O)O` . 0 (no)

Each molecule tested received a call. Report the one for `CNC[C@H](O)c1ccc(O)c(O)c1` . 0 (no)

Each molecule tested received a call. Report the one for COC(=O)C1=C(C)NC(C)=C(C(=O)OCCCN2CCC(c3ccccc3)(c3ccccc3)CC2)C1c1cccc([N+](=O)[O-])c1 (centres undefined) . 1 (yes)

Each molecule tested received a call. Report the one for `N=C(N=C(N)N)N1CCOCC1` . 0 (no)

Each molecule tested received a call. Report the one for `Cc1ccc(C)c(OCCCC(C)(C)C(=O)O)c1` . 0 (no)

Each molecule tested received a call. Report the one for CCC(C)(Oc1ccc(C2(c3ccc(OC(C)(CC)C(=O)O)cc3)CCCCC2)cc1)C(=O)O (centres undefined) . 0 (no)

Each molecule tested received a call. Report the one for Cc1c(OCC(F)(F)F)ccnc1CS(=O)c1nc2ccccc2[nH]1 (centres undefined) . 0 (no)

Each molecule tested received a call. Report the one for O=C(NC(Cc1cc(=O)[nH]c2ccccc12)C(=O)O)c1ccc(Cl)cc1 (centres undefined) . 0 (no)

Each molecule tested received a call. Report the one for `O=C1CCc2ccc(OCCCCN3CCN(c4cccc(Cl)c4Cl)CC3)cc2N1` . 0 (no)

Each molecule tested received a call. Report the one for `C=C(c1ccc(C(=O)O)cc1)c1cc2c(cc1C)C(C)(C)CCC2(C)C` . 0 (no)

More entries:
Each molecule tested received a call. Report the one for `CS(=O)(=O)OCCCCOS(C)(=O)=O` . 0 (no)

Each molecule tested received a call. Report the one for O=C(CS(=O)Cc1ccco1)NCC=CCOc1cc(CN2CCCCC2)ccn1 (centres undefined) . 0 (no)

Each molecule tested received a call. Report the one for `N[C@@H](Cc1cc(I)c(Oc2cc(I)c(O)c(I)c2)c(I)c1)C(=O)O` . 0 (no)

Each molecule tested received a call. Report the one for `CCCCc1ccc2nc(NC(=O)OC)[nH]c2c1` . 0 (no)

Each molecule tested received a call. Report the one for `CN(C)CCc1c[nH]c2ccc(Cn3cncn3)cc12` . 0 (no)

Each molecule tested received a call. Report the one for Clc1ccc(C(Cn2ccnc2)OCc2ccsc2Cl)c(Cl)c1 (centres undefined) . 1 (yes)
